Origin of measurements: patent US20070043093A1

Recorded EC50, one value per entry.
Target: GLP-1R (Rattus norvegicus, UniProt P32301)
Construct: stably transfected with the expression vector of GLP-1R gene
Sequence (P32301 22-463): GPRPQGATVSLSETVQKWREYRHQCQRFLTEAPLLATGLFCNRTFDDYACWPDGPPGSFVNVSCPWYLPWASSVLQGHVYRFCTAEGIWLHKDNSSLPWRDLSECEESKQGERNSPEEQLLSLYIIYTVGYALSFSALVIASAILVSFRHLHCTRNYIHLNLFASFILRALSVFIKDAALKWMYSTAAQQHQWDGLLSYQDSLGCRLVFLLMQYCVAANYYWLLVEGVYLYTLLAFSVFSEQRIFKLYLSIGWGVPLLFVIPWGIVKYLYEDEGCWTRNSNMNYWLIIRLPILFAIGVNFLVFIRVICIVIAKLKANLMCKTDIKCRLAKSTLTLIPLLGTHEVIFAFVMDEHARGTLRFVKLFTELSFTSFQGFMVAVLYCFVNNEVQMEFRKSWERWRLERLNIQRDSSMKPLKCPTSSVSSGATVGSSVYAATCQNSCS
Test: Ligand-binding activity, competition with 125I-labelled GLP-1 on HEK 293/GLP1R+Luc cells
Design: species or system human
Details: competition with 125I-labelled GLP-1 (40 pM), 25 °C, 4 hours

Known results for compounds:
COMPOUND	MEASURED_TARGET	EC50
COc1cc(/C=C2/N=C(c3ccc(NC(=O)c4ccccc4)cc3)OC2=O)ccc1OC(=O)c1cccs1 [wang524]	GLP-1R (Rattus norvegicus, UniProt P32301)	> 100 µM
COc1cc(/C=C2/N=C(c3ccc(NC(C)=O)cc3)OC2=O)ccc1OC(=O)c1cccs1 [wang462]	GLP-1R (Rattus norvegicus, UniProt P32301)	> 100 µM
COc1cc(C=C2N=C(c3ccc(NC(=O)C4CCCC4)cc3)OC2=O)ccc1OC(=O)c1cccs1 [wang516]	GLP-1R (Rattus norvegicus, UniProt P32301)	40 to 80 µM
COc1cc(/C=C2/N=C(c3ccc(NC(=O)OC(C)(C)C)cc3)OC2=O)ccc1OC(=O)c1cccs1 [wang520]	GLP-1R (Rattus norvegicus, UniProt P32301)	60 to 100 µM

Please examine the following record next.
What EC50 value was documented for this compound, COc1cc(C=C2N=C(c3ccccc3)OC2=O)ccc1OC(=O)c1cccs1 [wang405] ?
> 100 µM
